assay: inhibitors of E-selectin induction by TNFa, primary screen, imaging, HUVEC, immunofluorescence, MLSMR starter and 10KST1 sets (AID 487); conditions: HUVEC TNFalpha-induced E-selectin immunofluorescence imaging, at 2 µM; stronger effect = higher value;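 further: signal is fraction of cell area covered by stained E-selectin grains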
Rule: inhibition under -10% gives No, otherwise Yes.

[[record]]
compound = "CC1(C)CC(=O)C2=C(C1)OC(=O)C2(NC(=O)c1cccs1)C(F)(F)F (centres undefined)"
classname = "Yes"

[[record]]
compound = "Cc1ccc(-c2nn(C)c(=O)c3ccccc23)cc1CN1CCOCC1"
classname = "No"

[[record]]
compound = "COC(=O)c1ccccc1NC(=O)C1CC(=O)N(c2ccc(F)cc2)C1 (centres undefined)"
classname = "No"

[[record]]
compound = "CCCCOCCCNC(=O)c1cccs1"
classname = "No"

[[record]]
compound = "CC1=C(C(=O)Nc2ccccc2)C(c2ccco2)C(C#N)=C(SCC(=O)Nc2cccc(C)c2C)N1 (centres undefined)"
classname = "No"

[[record]]
compound = "COc1cc2c(cc1OC)-c1cc(Nc3ccc4c(c3)OCCO4)nc(=O)n1CC2"
classname = "Yes"

[[record]]
compound = "Clc1ccc2c(c1)[C@H]1OCC[C@H]1[C@@H](c1ccco1)N2"
classname = "No"

[[record]]
compound = "Cc1nc(N2CCN(C(=O)c3ccc(Cl)cc3)CC2)c(C#N)c2c1COC(C)(C)C2"
classname = "Yes"

[[record]]
compound = "O=C(COC(=O)CSc1nnc(-c2ccc(Cl)cc2)o1)NCc1ccc2c(c1)OCO2"
classname = "Yes"

